# ASSAY INFO: plasmodial surface anion channel blockers, osmotic lysis – cell-based, P. falciparum Indochina, OD700, 1 h, primary screen (AID 1154)
# APPLIED CONDITIONS: P. falciparum Indochina infected RBC osmotic lysis, higher = more signal, called active from +8 up or from −8 down
Activity calls are given as the source filed them.
QUANTITY MEASURED: z-score

Worked set:
* COCCOC(=O)N1C(=O)[C@@]2(c3cc(C#CCC(C(=O)OC)C(=O)OC)ccc31)[C@H](c1ccccc1OCCO)N1[C@H](c3ccccc3)[C@H](c3ccccc3)OC(=O)[C@H]1[C@@H]2C(=O)Nc1nc2ccccc2s1 | 11.7 (active)
* O=C(N1CCCCC1)[C@]1(CCS(=O)(=O)c2ccccc2)N=C(c2ccc(OCCCO)cc2)O[C@@H]1c1ccccc1 | 27.2 (active)

Requested read-out: z-score. Entry: `Cc1ccc(S[C@]2(C(=O)NCCCN(C)C)CC(=O)N(C(C)C)[C@@H]2c2ccc(CO)cc2I)cc1`
6.19 (inactive)

----------
# ASSAY INFO: probe aNOTCH3 binding on compound microarray – biochemical, small-molecule microarray, 635/667 nm fluorescence, primary screen (AID 1120);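 also: probe is a biotin-tagged antibody raised against NOTCH3 rather than NOTCH3 protein; score merges spot fluorescence near 667 nm with spot signal to noise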
# APPLIED CONDITIONS: higher = more signal
Each entry below carries its recorded composite z-score.
Provide a numeric answer; units are not to be included.

Worked set:
- C#C[C@H](O[Si](C#CCCCCCC)(C(C)C)C(C)C)c1ccccc1: -0.22
- CC[C@@H]1C=C(C(=O)O)[C@H](c2ccc(C(C)C)cc2)N1S(=O)(=O)c1ccc(C)cc1: 0.42
- CC(C)NC(=O)[C@@H]1c2ccccc2C(=O)N(C2CCCCC2)[C@H]1c1ccc(CO)cc1: -0.0731
- COCCOC(=O)N1C(=O)[C@@]2(c3ccccc31)[C@H](C(=O)N1CCCCCCC1)[C@H]1C(=O)O[C@H](c3ccccc3)[C@H](c3ccccc3)N1[C@@H]2c1ccccc1OCCO: 1.5
- CN1C(=O)C2C=CC(C(O)C3=C[C@H]4C[C@@H](C3)C4(C)C)N(Nc3ccc([N+](=O)[O-])cc3[N+](=O)[O-])C2C1=O (some centres not stated): 0.289
- COC(=O)[C@@]1(Cc2ccc(F)cc2)[C@H]2c3cc(C(=O)N4CCCC4)n(CCc4ccc(OC)c(Br)c4)c3C[C@H]2CN1C(=O)c1ccccc1: 0.591

Requested read-out: composite z-score. Entry: `CCCNC(=O)[C@@]1(C)c2ccccc2C(=O)N(C(C)C)[C@H]1c1ccc(CO)cc1`
-0.136

----------
# ASSAY INFO: binders of probe aHhip on microarray, primary screen, stem cell growth factor project, biochemical, small-molecule microarray, fluorescence 635/667 (AID 1087);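 also: score merges spot fluorescence at 667nm with spot signal to noise ratio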
# APPLIED CONDITIONS: higher = more signal
QUANTITY MEASURED: composite z-score
Provide a numeric answer; units are not to be included.

Worked set:
* O[C@@H](Cc1ccccc1)[C@@H](/C=C/c1ccccc1)NCc1ccccc1Br | -0.475
* Cc1ccc(S[C@]2(C(=O)NCCCN(C)C)CC(=O)N(C(C)C)[C@@H]2c2ccc(CO)cc2I)cc1 | -0.354

Requested read-out: composite z-score. Entry: `COc1ccc([Si](C)(C)[C@@H]2[C@@H](CCn3cc([C@H](O)c4ccccc4)nn3)O[C@]3(C(=O)N(C)c4ccccc43)[C@H]2C)cc1`
-0.391

Repeat for the following molecule: `O=C(NCc1ccccc1)[C@@H]1c2ccccc2C(=O)N(Cc2cc(F)cc(C(F)(F)F)c2)[C@H]1c1ccc(CO)cc1`
-0.179

Repeat for the following molecule: CC(C)C(CO)N1C(=O)[C@@H]2[C@H]3C(=O)OCC=C[C@H]3OC23C=CCN(c2ccc4ccccc4c2)C(=O)[C@@H]13 (some centres not stated)
0.0373

Repeat for the following molecule: `C=CCNC(=O)[C@H]1[C@@H]2C(=O)O[C@@H](c3ccccc3)[C@@H](c3ccccc3)N2[C@@H](c2ccc(O)cc2)[C@]12C(=O)Nc1ccc(C#Cc3ccc(OC)cc3)cc12`
0.473

Repeat for the following molecule: `COCCCNC(=O)[C@@]1(Cc2ccccc2I)c2ccccc2C(=O)N(Cc2ccccc2)[C@H]1c1ccc(CO)cc1`
0.0695
